FYI, the data here is from paper PMC11932996.

Exercise: state measured Km for each of the compounds provided.
Tested on: AAC(6’)-Iaq
Format: biochemical, Brucella intermedia
Give just the number in µM; leave the unit off.

Please fill in: Km reported for `NC[C@H]1O[C@H](O[C@H]2[C@H](O[C@@H]3O[C@H](CO)[C@@H](O)[C@H]3O)[C@@H](O)[C@H](N)C[C@@H]2N)[C@H](N)[C@@H](O)[C@@H]1O` = 10.1

Please fill in: Km reported for `CN[C@@H]1[C@@H](O)[C@@H](O[C@@H]2[C@@H](O)[C@H](O[C@H]3OC(CN)=CC[C@H]3N)[C@@H](N)C[C@H]2N)OC[C@]1(C)O` = 4.33

Please fill in: Km reported for `NC[C@H]1O[C@H](O[C@H]2[C@H](O)[C@@H](O[C@H]3O[C@H](CO)[C@@H](O)[C@H](N)[C@H]3O)[C@H](N)C[C@@H]2N)[C@H](O)[C@@H](O)[C@@H]1O` = 13.3

Please fill in: Km reported for `CCN[C@@H]1C[C@H](N)[C@@H](O[C@H]2OC(CN)=CC[C@H]2N)[C@H](O)[C@H]1O[C@H]1OC[C@](C)(O)[C@H](NC)[C@H]1O` = 3.83

Please fill in: Km reported for `NCC[C@H](O)C(=O)N[C@@H]1C[C@H](N)[C@@H](O[C@H]2O[C@H](CN)[C@@H](O)[C@H](O)[C@H]2O)[C@H](O)[C@H]1O[C@H]1O[C@H](CO)[C@@H](O)[C@H](N)[C@H]1O` = 14.1
